Molecular target: BCAT2 (Homo sapiens)
Sequence (O15382 28-392): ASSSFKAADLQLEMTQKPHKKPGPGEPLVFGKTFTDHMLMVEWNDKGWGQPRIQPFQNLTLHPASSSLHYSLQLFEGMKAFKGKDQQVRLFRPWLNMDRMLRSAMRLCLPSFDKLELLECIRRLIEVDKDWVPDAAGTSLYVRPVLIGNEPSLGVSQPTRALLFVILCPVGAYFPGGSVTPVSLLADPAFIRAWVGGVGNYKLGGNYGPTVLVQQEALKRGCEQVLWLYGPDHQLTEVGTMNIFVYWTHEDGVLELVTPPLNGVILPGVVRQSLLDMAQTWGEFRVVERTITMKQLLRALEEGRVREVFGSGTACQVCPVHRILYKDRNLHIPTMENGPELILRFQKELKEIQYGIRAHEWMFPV
Test: BCAT2 in vitro cell inhibition using engineered A549 cells (KMV cell assay, 13C6-KMV by LC-MS/MS)
Assay type: cell-based
Parameters: The result was an engineered A549 cell line that expressed endogenous BCAT2; endogenous in cells; host or cells: A549 cells with MUT and BCAT1 knocked out by CRISPR/CAS9
Conditions: average where tested multiple times
pIC50: −log10 of the molar value.
experimental readout: pIC50

Observe how each entry below is paired with its result.
{"compound": "C#Cc1cnc(C(=O)N[C@H]2CCC[C@@H](n3c(-c4ccccn4)nc4cnc(-n5ccnn5)cc43)C2)s1 [Example 33]", "system under test": "BCAT2 (Homo sapiens)", "pIC50": "6.00 to 6.30"}
{"compound": "O=C(NC1COCC(n2c(-c3ccccc3F)nc3cnc(-n4nccn4)cc32)C1)c1ncc(C(F)F)s1 (single isomer, unassigned) [Example 143]", "system under test": "BCAT2 (Homo sapiens)", "pIC50": "6.30 to 7.00"}
{"compound": "O=C(N[C@H]1CCC[C@@H](n2c(OCC(F)(F)F)nc3cnc(-n4nccn4)cc32)C1)c1ncc(Cl)s1 [Example 101]", "system under test": "BCAT2 (Homo sapiens)", "pIC50": "< 6.00"}
{"compound": "O=C(N[C@@H]1CCC[C@H](n2c(-c3ccccc3F)nc3cnc(-c4ccccn4)cc32)[C@H]1O)c1ncc(Cl)s1 [Example 241]", "system under test": "BCAT2 (Homo sapiens)", "pIC50": "6.30 to 7.00"}
{"compound": "CNC(=O)c1cc2nc(CC(C)C)n([C@@H]3CCC[C@H](NC(=O)c4ncc(Cl)s4)[C@H]3O)c2cn1 (single isomer, unassigned) [Example 280]", "system under test": "BCAT2 (Homo sapiens)", "pIC50": "6.00 to 6.30"}

Could you now look at the following compound, please?
What does the data say about its pIC50? Entry: CC(C)[C@H](N)c1nc2cnc(-c3ccccn3)cc2n1[C@@H]1CCC[C@H](NC(=O)c2ncc(Cl)s2)C1 [Example 166]
6.30 to 7.00

Measured values drawn from patent US20260159512A1 for this set.
